System: diffuse large B-cell lymphoma SU-DHL-10 cell
Assay: MTT anti-proliferative assay, SU-DHL-10
Type: cell-based, human
Conditions: MTT, 48 h; read-out: IC50 SU-DHL-10
pIC50: −log10 of the molar value.
Documented pIC50 across a set of compounds

structure-as-smiles	recorded-result
N#C/C(=C\c1ccccc1)c1cccc(OC(F)(F)F)c1	< 4.00
Cc1ccc(/C=C(\C#N)c2ccc(C(F)(F)F)cc2)cc1	< 4.00
N#C/C(=C\c1cccs1)c1ccc(OC(F)(F)F)cc1	< 4.00
N#C/C(=C\c1ccccn1)c1ccc(C(F)(F)F)cc1	< 4.00
N#C/C(=C\c1ccccc1)c1ccccc1OC(F)(F)F	< 4.00
CCc1ccc(/C=C(\C#N)c2ccc(OC(F)(F)F)cc2)cc1	4.82
N#C/C(=C\c1ccc(Br)cc1)c1ccc(OC(F)(F)F)cc1	4.13
N#C/C(=C\c1cccs1)c1ccc(C(F)(F)F)cc1	< 4.00

Please look up its pIC50: "COc1cc(/C=C(\C#N)c2ccc(OC(F)(F)F)cc2)cc(OC)c1OC"
< 4.00

###

Tested on: MGC-803 late stage differentiation gastric cancer cell
Test: MTT anti-proliferative assay, MGC-803
Format: cell-based, human
Settings: MTT, 48 h
readout-name: IC50

In the examples that follow, each entry is paired with its recorded IC50.
compound	IC50
Cc1cc(C)c(/C=C(\C#N)c2ccc(OC(F)(F)F)cc2)c(C)c1 [Compound 1a2r]	> 100 µM
N#C/C(=C\c1ccc(Br)cc1)c1ccc(C(F)(F)F)cc1 [Compound 1f2f]	> 100 µM
N#C/C(=C\c1ccccc1F)c1ccc(C(F)(F)F)cc1 [Compound 1f2g]	> 100 µM
COc1cc(/C=C(\C#N)c2ccc(OC(F)(F)F)cc2)cc(OC)c1OC [Compound 1a2l]	> 100 µM
N#C/C(=C\c1ccccc1)c1ccc(OC(F)(F)F)cc1 [Compound 1a2a]	> 100 µM

Which IC50 is reported with MGC-803 late stage differentiation gastric cancer cell for this entry: CCCCCCOc1ccc(/C=C(\C#N)c2ccc(OC(F)(F)F)cc2)cc1 [Compound 1a2p] ?
> 100 µM

Which IC50 is reported with MGC-803 late stage differentiation gastric cancer cell for this entry: CCN(CC)c1ccc(/C=C(\C#N)c2ccc(C)cc2)cc1 [Compound 1d2b] ?
8.6 µM

Which IC50 is reported with MGC-803 late stage differentiation gastric cancer cell for this entry: N#C/C(=C\c1ccc(N2CCCC2)cc1)c1ccc(OC(F)(F)F)cc1 [Compound 1a2t] ?
41.5 µM

Which IC50 is reported with MGC-803 late stage differentiation gastric cancer cell for this entry: Cc1ccc(/C(C#N)=C/c2ccc(N(C)C)cc2)cc1 [Compound 1d2a] ?
18.8 µM

Which IC50 is reported with MGC-803 late stage differentiation gastric cancer cell for this entry: CN(C)c1ccc(/C=C(\C#N)c2ccc(OC(F)(F)F)cc2)cc1 [Compound 1a2h] ?
16.8 µM

###

Test system: MGC-803 late stage differentiation gastric cancer cell
Assay: MTT anti-proliferative assay, MGC-803
Type: cell-based, human
Conditions: MTT, 48 h
Documented IC50 across a set of compounds

compound	IC50
N#C/C(=C\c1ccc(N2CCOCC2)cc1)c1ccc(OC(F)(F)F)cc1 [Compound 1a2s]	> 100 µM
CN(C)c1ccc(/C=C(\C#N)c2cccc(OC(F)(F)F)c2)cc1 [Compound 1b2h]	3.7 µM

Please look up its IC50: CCN(CC)c1ccc(/C=C(\C#N)c2ccc(OC(F)(F)F)cc2)cc1 [Compound 1a2i]
> 100 µM

Please look up its IC50: CCN(CC)c1ccc(/C=C(\C#N)c2ccc(C(F)(F)F)cc2)cc1 [Compound 1f2b]
> 100 µM

Please look up its IC50: N#C/C(=C\c1ccccc1)c1cccc(OC(F)(F)F)c1 [Compound 1b2a]
> 100 µM

Please look up its IC50: Cc1ccc(/C=C(\C#N)c2ccc(C(F)(F)F)cc2)cc1 [Compound 1f2n]
> 100 µM

Please look up its IC50: COc1ccc(/C=C(\C#N)c2ccc(C(F)(F)F)cc2)cc1 [Compound 1f2s]
> 100 µM

###

Tested on: HepG2 hepatoma cell
Assay: MTT anti-proliferative assay, HepG2
Format: cell-based, human
Settings: MTT, 48 h; read-out: IC50 HepG-2
pIC50: −log10 of the molar value.
Documented pIC50 across a set of compounds

In the examples that follow, each entry is paired with its recorded pIC50.
structure-as-smiles	measurement-target	pIC50
CCc1ccc(/C=C(\C#N)c2cccc(OC(F)(F)F)c2)cc1	HepG2 hepatoma cell	4.14
CCCCCOc1ccc(/C=C(\C#N)c2ccc(OC(F)(F)F)cc2)cc1	HepG2 hepatoma cell	< 4.00

Please look up its pIC50: "Cc1ccc(/C=C(\C#N)c2ccc(OC(F)(F)F)cc2)cc1"
< 4.00

###

Tested on: diffuse large B-cell lymphoma SU-DHL-10 cell
Assay: MTT anti-proliferative assay, SU-DHL-10
Format: cell-based, human
Conditions: MTT, 48 h; read-out: IC50 SU-DHL-10
readout-name: IC50

In the examples that follow, each entry is paired with its recorded IC50.
structure-as-smiles	IC50
N#C/C(=C\c1ccc(Cl)cc1)c1ccccc1OC(F)(F)F	> 100 µM
COc1ccc(/C=C(\C#N)c2ccc(OC(F)(F)F)cc2)cc1	> 100 µM
N#C/C(=C\c1ccccc1Br)c1ccc(C(F)(F)F)cc1	> 100 µM
N#C/C(=C\c1ccc(Cl)cc1)c1ccc(C(F)(F)F)cc1	> 100 µM
Cc1ccc(/C=C(\C#N)c2ccccc2OC(F)(F)F)cc1	> 100 µM
N#C/C(=C\c1ccccc1C(F)(F)F)c1ccc(C(F)(F)F)cc1	> 100 µM
COc1ccc(/C(C#N)=C/c2cc(OC)c(OC)c(OC)c2)cc1	27.2 µM
N#C/C(=C\c1ccc(F)cc1)c1ccc(OC(F)(F)F)cc1	38.8 µM
N#C/C(=C\c1ccco1)c1ccc(OC(F)(F)F)cc1	> 100 µM
N#C/C(=C\c1ccc(Cl)cc1)c1ccc(OC(F)(F)F)cc1	> 100 µM

Please look up its IC50: "N#C/C(=C\c1cccc(C(F)(F)F)c1)c1ccc(C(F)(F)F)cc1"
50.1 µM

Please look up its IC50: "CCCCOc1ccc(/C=C(\C#N)c2ccc(OC(F)(F)F)cc2)cc1"
> 100 µM

Please look up its IC50: "N#C/C(=C\c1ccc(/C=C/C(=O)c2ccc(F)cc2)cc1)c1ccc(OC(F)(F)F)cc1"
1 µM

Please look up its IC50: "N#C/C(=C\c1ccc(C(F)(F)F)cc1)c1ccc(C(F)(F)F)cc1"
> 100 µM

Please look up its IC50: "CCCCCCOc1ccc(/C=C(\C#N)c2ccc(OC(F)(F)F)cc2)cc1"
> 100 µM

Please look up its IC50: "COc1ccc(/C=C(\C#N)c2ccccc2OC(F)(F)F)cc1"
> 100 µM

###

Documented IC50 across a set of molecules
Tested on: MGC-803 late stage differentiation gastric cancer cell
Test: MTT anti-proliferative assay, MGC-803
Format: cell-based, human
Conditions: MTT, 48 h

In the examples that follow, each entry is paired with its recorded IC50.
structure-as-smiles	recorded-result
N#C/C(=C\c1ccc(Cl)cc1)c1ccc(C(F)(F)F)cc1	> 100 µM
N#C/C(=C\c1ccc(/C=C/C(=O)c2ccc(F)cc2)cc1)c1ccc(OC(F)(F)F)cc1	87.5 µM
COc1ccc(/C=C(\C#N)c2cccc(OC(F)(F)F)c2)cc1	> 100 µM
N#C/C(=C\c1ccc(Br)cc1)c1ccc(OC(F)(F)F)cc1	> 100 µM
N#C/C(=C\c1ccc(F)cc1)c1ccc(OC(F)(F)F)cc1	37.4 µM

Please look up its IC50: "N#C/C(=C\c1ccc(C(F)(F)F)cc1)c1ccc(C(F)(F)F)cc1"
> 100 µM

Please look up its IC50: "CCCOc1ccc(/C=C(\C#N)c2cccc(OC(F)(F)F)c2)cc1"
> 100 µM

Please look up its IC50: "CN(C)c1ccc(/C=C(\C#N)c2ccc(C(F)(F)F)cc2)cc1"
> 100 µM

###

System: MGC-803 late stage differentiation gastric cancer cell
Experiment: MTT anti-proliferative assay, MGC-803
Assay type: cell-based, human
Conditions: MTT, 48 h
Procedure: The anti-proliferation activities of the synthesized analogs were assessed by an in vitro MTT assay conducted on thirteen human cell lines. Their cytotoxic activities were evaluated by measuring the inhibition of net cell growth. […] 1.6. Cell lines and cell culture MTT was purchased from Sigma-Aldrich Co. (St. Louis, MO, USA). The PI and Annexin V-FITC apoptosis detection kit were purchased from Invitrogen (Eugene, OR, USA). […] the anti-proliferative activities were determined by MTT assay. […]
Documented IC50 across a set of molecules

Please look up its IC50: "N#C/C(=C\c1ccc(Oc2ccccc2)cc1)c1ccc(C(F)(F)F)cc1"
> 100 µM

Please look up its IC50: "CCN(CC)c1ccc(/C=C(\C#N)c2ccc(OC)cc2)cc1"
> 100 µM

Please look up its IC50: "Cc1cccc(/C=C(\C#N)c2ccc(OC(F)(F)F)cc2)c1"
> 100 µM

Please look up its IC50: "N#C/C(=C\c1ccc(Cl)cc1)c1cccc(OC(F)(F)F)c1"
> 100 µM

Please look up its IC50: "N#C/C(=C\c1ccco1)c1ccc(C(F)(F)F)cc1"
> 100 µM
